In this section, each of the molecules is paired with its reported EC50.
# assayed-system: G-protein coupled receptor 151 (Homo sapiens) (UniProt Q8TDV0)
# Sequence (Q8TDV0 whole entry, looked up): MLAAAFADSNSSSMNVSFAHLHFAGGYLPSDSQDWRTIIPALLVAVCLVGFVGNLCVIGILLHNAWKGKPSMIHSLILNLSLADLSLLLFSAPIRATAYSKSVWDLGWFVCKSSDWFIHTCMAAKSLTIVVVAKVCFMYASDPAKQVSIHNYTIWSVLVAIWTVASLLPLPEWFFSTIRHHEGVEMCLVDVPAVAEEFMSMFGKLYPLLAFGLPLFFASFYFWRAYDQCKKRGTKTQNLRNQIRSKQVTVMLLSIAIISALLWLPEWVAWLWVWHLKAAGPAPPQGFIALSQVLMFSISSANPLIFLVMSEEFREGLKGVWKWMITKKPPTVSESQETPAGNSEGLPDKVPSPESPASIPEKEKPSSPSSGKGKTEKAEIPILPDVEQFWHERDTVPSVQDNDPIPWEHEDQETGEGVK
# assay-name: GPR151 activator potency, dose response, cell-based (AID 1508610)
# experimental-conditions: cell-based GPR151 activation reporter
Calls of active or inactive are those of the source. How the calls were made is not given here.
endpoint-name: EC50

1. Cc1ccc(-c2nc3ccccc3[nH]2)cc1 = > 35.1 µM (inactive)
2. COc1ccc(C[C@H](N)C(=O)N[C@@H]2[C@@H](CO)OC(n3cnc4c(N(C)C)ncnc43)[C@@H]2O)cc1 (stereo not given in full) = > 28 µM (inactive)
3. C[C@H]1NC(=O)[C@H]2CN(C(=O)NCc3ccccc3)CCN2C1=O = > 28 µM (inactive)
4. CCCCN(CCNC(=O)Cn1ncc2c1-c1cc(C)ccc1OC2)Cc1ccco1 = > 28 µM (inactive)
5. CC1CCCC(NCc2c(C(=O)O)n(Cc3ccccc3F)c3ccccc23)C1C (stereo not given) = > 28 µM (inactive)
6. CCC(Sc1nc(NC2CCCCC2)c2ccccc2n1)C(=O)Nc1ccc2c(c1)OCO2 (stereo not given) = > 20.6 µM (inactive)
7. O=C(Nc1ncc([N+](=O)[O-])s1)c1ccc(Cl)cc1Cl = > 27.3 µM (inactive)
8. O=C(Nc1ncc([N+](=O)[O-])s1)c1cccnc1 = > 31.4 µM (inactive)
9. O=C1c2ccccc2C(Nc2ccc(Cl)cc2)N1c1cccnc1 (stereo not given) = > 28 µM (inactive)
10. O=C1CC(C(=O)N2CCCC(c3[nH]ncc3-c3ccccc3)C2)c2ccccc21 (stereo not given) = > 28 µM (inactive)

Values compiled from PubChem BioAssay AID1508610.
